Tgt: CDK2 (UniProt P24941)
pIC50: −log10 of the molar value.
Entries and their measured pIC50 follow.
Reported Metric: pIC50

>>> experimental_result("CC(=O)N1CCn2cc(C3=C(c4cccc5c4OCC5)C(=O)NC3=O)c3cccc(c32)C1")
7.75
>>> experimental_result("O=C1NC(=O)C(c2cncc3ccoc23)=C1c1cn2c3c(cccc13)CNCC2")
8.19
>>> experimental_result("O=C1NC(=O)C(c2cn3c4c(cccc24)CNCC3)=C1c1ccc2c(c1)OCO2")
5.95
>>> experimental_result("CC(C)C(=O)N1CCn2cc(C3=C(c4cnn5ccccc45)C(=O)NC3=O)c3cccc(c32)C1")
5.79

###

Tgt: CDK2 (UniProt P24941)
Entries and their measured IC50 follow.
Reported Metric: IC50 (nM)

>>> experimental_result("O=C1NC(=O)C(c2cnn3ccccc23)=C1c1cn2c3c(cccc13)CNCC2")
750
>>> experimental_result("Cn1ccc2c(C3=C(c4cn5c6c(cccc46)CNCC5)C(=O)NC3=O)cccc21")
363
>>> experimental_result("CC(=O)N1CCn2cc(C3=C(c4cnc5ccccn45)C(=O)NC3=O)c3cccc(c32)C1")
629
>>> experimental_result("O=C1NC(=O)C(c2cnc3ncccn23)=C1c1cn2c3c(cccc13)CNCC2")
8760
>>> experimental_result("CN(C)C(=O)N1CCn2cc(C3=C(c4cnn5ccccc45)C(=O)NC3=O)c3cccc(c32)C1")
2200
>>> experimental_result("CN(C)C(=O)N1CCn2cc(C3=C(c4cccc5ccoc45)C(=O)NC3=O)c3cccc(c32)C1")
67.5
>>> experimental_result("O=C1NC(=O)C(c2cnc3ccncn23)=C1c1cn2c3c(cccc13)CNCC2")
7590
>>> experimental_result("O=C1NC(=O)C(c2cn3c4c(cccc24)CNCC3)=C1c1cccc2occc12")
205
